Test system: PC-3
assayMethodText: Growth inhibition of human PC-3 cells assessed as cell growth at 1 uM incubated for 48 hrs by sulforhodamine B assay relative to control
Type: functional
testContext: read-out: Activity
quantityMeasured: growth at 1 µM

# count of solved cases: 5
{"smiles": "Nc1c(C(=O)Nc2ccccc2)sc2nc3c(cc12)CN(Cc1ccccc1)CC3", "experimentalSystem": "PC-3", "growth at 1 µM": "89%"}
{"smiles": "COc1cccc(NC(=O)c2sc3nc4c(cc3c2N)CN(Cc2ccccc2)CC4)c1", "experimentalSystem": "PC-3", "growth at 1 µM": "73%"}
{"smiles": "Cc1cccc(NC(=O)c2sc3nc4c(cc3c2N)C(=O)CCC4)c1", "experimentalSystem": "PC-3", "growth at 1 µM": "29%"}
{"smiles": "CCc1cccc(C)c1NC(=O)c1sc2nc3c(cc2c1N)C(=O)CCC3", "experimentalSystem": "PC-3", "growth at 1 µM": "31%"}
{"smiles": "Cc1cc(C)c(NC(=O)c2sc3nc4c(cc3c2N)CN(Cc2ccccc2)CC4)c(C)c1", "experimentalSystem": "PC-3", "growth at 1 µM": "75%"}

Consider the record given below.
// returns growth at 1 µM for `CN1CCc2nc3sc(C(N)=O)c(N)c3c(-c3cccs3)c2C1` with PC-3; value = 106%

###

Tested on: SNB-75
assayMethodText: Growth inhibition of human SNB-75 cells assessed as cell growth at 100 uM incubated for 48 hrs by sulforhodamine B assay relative to control
Assay type: functional
testContext: read-out: Activity
Entries and their growth at 100 µM
Output spec: scalar in %, unitless text.

# count of solved cases: 3
{"smiles": "COc1cccc(NC(=O)c2sc3nc4c(cc3c2N)CN(Cc2ccccc2)CC4)c1", "quantityMeasured": "growth at 100 µM", "readoutValue": -61}
{"smiles": "Cc1cccc(NC(=O)c2sc3nc4c(cc3c2N)C(=O)CCC4)c1", "quantityMeasured": "growth at 100 µM", "readoutValue": 1}
{"smiles": "Cc1ccc(NC(=O)c2sc3nc4c(cc3c2N)C(=O)CCC4)cc1C", "quantityMeasured": "growth at 100 µM", "readoutValue": 10}

Per the record, `Cc1cc(C)c(NC(=O)c2sc3nc4c(cc3c2N)CN(Cc2ccccc2)CC4)c(C)c1` has growth at 100 µM of -9

Per the record, `CN1CCc2nc3sc(C(N)=O)c(N)c3c(-c3cccs3)c2C1` has growth at 100 µM of -40

Per the record, `CCc1ccccc1NC(=O)c1sc2nc3c(cc2c1N)C(=O)CCC3` has growth at 100 µM of -19

Per the record, `CCc1cccc(C)c1NC(=O)c1sc2nc3c(cc2c1N)C(=O)CCC3` has growth at 100 µM of 29

Per the record, `Nc1c(C(=O)Nc2ccccc2)sc2nc3c(cc12)CN(Cc1ccccc1)CC3` has growth at 100 µM of -49

###

Test system: NCI-H522
assayMethodText: Growth inhibition of human NCI-H522 cells assessed as cell growth at 1 uM incubated for 48 hrs by sulforhodamine B assay relative to control
Type: functional
testContext: read-out: Activity
Entries and their growth at 1 µM
Output spec: scalar in %, unitless text.

# count of solved cases: 2
{"smiles": "Cc1cccc(NC(=O)c2sc3nc4c(cc3c2N)C(=O)CCC4)c1", "quantityMeasured": "growth at 1 µM", "unitAbbreviation": "%", "readoutValue": -35}
{"smiles": "Cc1cc(C)c(NC(=O)c2sc3nc4c(cc3c2N)CN(Cc2ccccc2)CC4)c(C)c1", "quantityMeasured": "growth at 1 µM", "unitAbbreviation": "%", "readoutValue": 66}

Consider the record given below.
// returns growth at 1 µM for `CCc1ccccc1NC(=O)c1sc2nc3c(cc2c1N)C(=O)CCC3` with NCI-H522; value = 34

src = ChEMBL document CHEMBL4715736
